# test system: Gonadotropin-releasing hormone receptor (Rattus norvegicus, UniProt P30969)
# Sequence (P30969 whole entry): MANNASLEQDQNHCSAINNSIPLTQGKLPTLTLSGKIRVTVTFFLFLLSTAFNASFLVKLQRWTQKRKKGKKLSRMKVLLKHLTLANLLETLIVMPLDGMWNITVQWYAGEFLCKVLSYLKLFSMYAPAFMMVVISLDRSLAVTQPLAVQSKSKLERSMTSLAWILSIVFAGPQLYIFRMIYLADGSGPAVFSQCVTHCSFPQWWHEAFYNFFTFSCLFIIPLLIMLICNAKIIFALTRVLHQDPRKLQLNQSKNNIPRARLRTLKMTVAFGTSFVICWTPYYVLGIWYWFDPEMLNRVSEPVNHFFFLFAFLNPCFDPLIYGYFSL
pKd: −log10 of the molar value.
metric: pKd

>>> endpoint_value("CC(=O)N[C@H](Cc1ccc2ccccc2c1)C(=O)N[C@H](Cc1ccc(F)cc1)C(=O)N[C@H](Cc1c[nH]c2ccccc12)C(=O)N[C@H]1CSSC[C@@H](C(N)=O)NC(=O)[C@@H]2CCCN2C(=O)[C@H](CCCN=C(N)N)NC(=O)[C@H](CC(C)C)NC(=O)[C@@H](CCCN=C(N)N)NC(=O)[C@H](Cc2ccc(O)cc2)NC1=O")
8.22

---

# test system: Gonadotropin-releasing hormone receptor (Rattus norvegicus, UniProt P30969)
pKd: −log10 of the molar value. Positions of bridges follow the written chain, without caps; N, C: chain ends. Non-standard residues stand in square brackets, D forms with d. Residues, ends and D or L forms follow the SMILES beside them. dPhe(4-Cl) = N[C@H](Cc1ccc(Cl)cc1)C(=O)O; dPhe(4-F) = N[C@H](Cc1ccc(F)cc1)C(=O)O; d2Nal = N[C@H](Cc1ccc2ccccc2c1)C(=O)O; d3Pal = N[C@H](Cc1cccnc1)C(=O)O; ΔPro = O=C(O)[C@@H]1C=CCN1
Each entry below carries its recorded pKd.
metric: pKd

>>> endpoint_value("CC(=O)N[C@H](Cc1ccc2ccccc2c1)C(=O)N[C@H](Cc1ccc(Cl)cc1)C(=O)N[C@H](Cc1cccnc1)C(=O)N[C@H]1CCC(=O)NC[C@@H](C(N)=O)NC(=O)[C@@H]2CCCN2C(=O)[C@H](CCCNC(=N)N)NC(=O)[C@H](CC(C)C)NC(=O)[C@@H](Cc2cccnc2)NC(=O)[C@H](CCCNC(=N)N)NC1=O")
9.00
>>> endpoint_value("CC(=O)N[C@H](Cc1ccc2ccccc2c1)C(=O)N[C@H](Cc1ccc(Cl)cc1)C(=O)N[C@H](Cc1cccnc1)C(=O)N[C@@H](CO)C(=O)N[C@@H](CCCNC(=N)N)C(=O)N[C@H](Cc1cccnc1)C(=O)N[C@@H](CC(C)C)C(=O)N[C@@H](CCCNC(=N)N)C(=O)N1CCC[C@H]1C(=O)N[C@H](C)C(N)=O (Ac-[d2Nal][dPhe(4-Cl)][d3Pal]SR[d3Pal]LRP[dA]-NH2)")
9.62
>>> endpoint_value("CC(=O)NC[C@H](NC(=O)[C@@H](Cc1cccnc1)NC(=O)[C@@H](Cc1ccc(Cl)cc1)NC(=O)[C@@H](Cc1ccc2ccccc2c1)NC(C)=O)C(=O)N[C@@H](CCCN=C(N)N)C(=O)N[C@H](Cc1cccnc1)C(=O)N[C@@H](CC(C)C)C(=O)N[C@@H](CCCN=C(N)N)C(=O)N1CCC[C@H]1C(=O)N[C@@H](CC(N)=O)C(N)=O")
9.00
>>> endpoint_value("CC(=O)N[C@H](Cc1ccc2ccccc2c1)C(=O)N[C@H](Cc1ccc(F)cc1)C(=O)N[C@H](Cc1c[nH]c2ccccc12)C(=O)N[C@@H](CO)C(=O)N[C@@H](Cc1ccc(O)cc1)C(=O)N[C@H](CCCN=C(N)N)C(=O)N[C@@H](CC(C)C)C(=O)N[C@@H](CCCN=C(N)N)C(=O)N1CCC[C@H]1C(=O)NCC(N)=O (Ac-[d2Nal][dPhe(4-F)][dW]SY[dR]LRPG-NH2)")
9.19
>>> endpoint_value("CC(=O)N[C@H](Cc1ccc2ccccc2c1)C(=O)N[C@H](Cc1ccc(Cl)cc1)C(=O)N[C@H](Cc1cccnc1)C(=O)N[C@H]1CSSC[C@@H](C(N)=O)NC(=O)[C@@H]2CCCN2C(=O)[C@H](CCCNC(=N)N)NC(=O)[C@H](CC(C)C)NC(=O)[C@@H](Cc2cccnc2)NC(=O)[C@H](CCCNC(=N)N)NC1=O (Ac-[d2Nal][dPhe(4-Cl)][d3Pal]CR[d3Pal]LRPC-NH2; disulfide 4-10)")
9.10
>>> endpoint_value("CC(=O)N1CC=C[C@H]1C(=O)N[C@H](Cc1ccc(F)cc1)C(=O)N[C@H](Cc1c[nH]c2ccccc12)C(=O)N[C@@H](CO)C(=O)N[C@@H](Cc1ccc(O)cc1)C(=O)N[C@H](Cc1c[nH]c2ccccc12)C(=O)N[C@@H](CC(C)C)C(=O)N[C@@H](CCCNC(=N)N)C(=O)N1CCC[C@H]1C(=O)NCC(N)=O (Ac-[ΔPro][dPhe(4-F)][dW]SY[dW]LRPG-NH2)")
9.57
>>> endpoint_value("CC(=O)N[C@H](Cc1ccc2ccccc2c1)C(=O)N[C@H](Cc1ccc(F)cc1)C(=O)N[C@H](Cc1c[nH]c2ccccc12)C(=O)N[C@H]1CC(=O)NCCC[C@@H](C(N)=O)NC(=O)[C@@H]2CCCN2C(=O)[C@H](CCCN=C(N)N)NC(=O)[C@H](CC(C)C)NC(=O)[C@@H](CCCN=C(N)N)NC(=O)[C@H](Cc2ccc(O)cc2)NC1=O")
7.39
